- System: HCC-2998 colon
- method_notes: NCI tumour cell line growth inhibition, 48 h
The following molecules are listed with their measured log10(TGI) values.
quantity: log10(TGI) (log10 of the value in µM)

>  <molecule>
NC1CCC(Nc2nc(NCc3ccc(-c4ccco4)nc3)c3ncn(C4CCCC4)c3n2)CC1 (stereo unspecified)

>  <log10(TGI)>
-0.20

$$$$
>  <molecule>
CCOc1ccccc1-n1c(CN2CCN(C(=O)COc3ccc(CNCCCCCCN4C5CCCC4CC(OC(=O)Nc4cc(C)ccc4OC)C5)cc3)CC2)nc2ccccc2c1=O (stereo unspecified)

>  <log10(TGI)>
0.50

$$$$
>  <molecule>
O=C1c2ccccc2C(=O)c2sc(Nc3cccc(Cl)c3)nc21

>  <log10(TGI)>
0.72

$$$$
>  <molecule>
CC1=NN(c2nc(N)nc(/C(C#N)=C/c3ccccc3O)n2)C(C)(C)C1

>  <log10(TGI)>
1.56

$$$$
>  <molecule>
O=C(Nc1ccc(I)cc1)c1cc([N+](=O)[O-])ccc1O

>  <log10(TGI)>
1.92

$$$$
>  <molecule>
Cc1sc(Nc2ccc(Nc3nc(-c4ccccc4)c(C)s3)cc2)nc1-c1ccccc1

>  <log10(TGI)>
1.70

$$$$
>  <molecule>
CC[C@@]12CCCN3CC[C@]4(c5cccc(OC)c5N(C(C)=O)[C@@H]4CC1)[C@H]32

>  <log10(TGI)>
1.71

$$$$
>  <molecule>
COc1cc2nc(-c3ccc(C(F)(F)F)cc3)cc(OCCCN3CCC(O)CC3)c2cc1OC

>  <log10(TGI)>
1.30

$$$$
>  <molecule>
CN(C)CCNc1ccc([N+](=O)[O-])c2sc3ccccc3c(=O)c12

>  <log10(TGI)>
1.12

$$$$
>  <molecule>
COc1cc2nc(C)nc(N[C@H](C)c3cc(N)cc(C(F)(F)F)c3)c2cc1O[C@H]1CCOC1

>  <log10(TGI)>
1.52

$$$$
>  <molecule>
O=C(N/C(=C\c1cc(Cl)ccc1Cl)c1nc2[nH]c(=S)[nH]c(=O)c2[nH]1)c1ccccc1

>  <log10(TGI)>
1.49

$$$$
>  <molecule>
O=C1/C(=C/c2ccc([N+](=O)[O-])cc2)COc2ccc(O)c(O)c21

>  <log10(TGI)>
0.53

$$$$
>  <molecule>
O=C(C1OC1c1ccc(Cl)cc1)C12CC3CC(CC(C3)C1)C2 (stereo unspecified)

>  <log10(TGI)>
1.55

$$$$
>  <molecule>
CC(=O)OC(C)C(=O)C1c2cccc(O)c2C(=O)c2c(O)cc(C)cc21 (stereo unspecified)

>  <log10(TGI)>
0.23

$$$$
